Can you tell me fitness for the items I'm about to list?
# Tested on: S. pneumoniae D39V;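 note: OD595 on entry to stationary phase over no-drug wells; at most 1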
# Protocol details: fitness (endpoint OD595 vs no drug) (fraction); higher = more growth
# Measurement conditions: first compound 1 µg/mL; partner 0.0625 µg/mL
Answers are plain numbers.

Past entries and their recorded results:
1) O=C(O)[C@H]1/C(=C/CO)O[C@@H]2CC(=O)N21 [Clavulanic acid] + CN[C@H](CC(C)C)C(=O)N[C@H]1C(=O)N[C@@H](CC(N)=O)C(=O)N[C@H]2C(=O)N[C@H]3C(=O)N[C@H](C(=O)N[C@H](C(=O)O)c4cc(O)cc(O)c4-c4cc3ccc4O)[C@H](O)c3ccc(c(Cl)c3)Oc3cc2cc(c3O[C@@H]2O[C@H](CO)[C@@H](O)[C@H](O)[C@H]2O[C@H]2C[C@](C)(N)[C@H](O)[C@H](C)O2)Oc2ccc(cc2Cl)[C@H]1O [Vancomycin] | 0.889
2) O=C(O)[C@H]1/C(=C/CO)O[C@@H]2CC(=O)N21 [Clavulanic acid] + COc1c(N2C[C@@H]3CCCN[C@@H]3C2)c(F)cc2c(=O)c(C(=O)O)cn(C3CC3)c12 [Moxifloxacin] | 0.173
3) O=C(O)[C@H]1/C(=C/CO)O[C@@H]2CC(=O)N21 [Clavulanic acid] + Cn1nnc(-c2ccc(-c3ccc(N4C[C@H](CO)OC4=O)cc3F)cn2)n1 [Tedizolid] | 0.938
4) Cc1cc(NS(=O)(=O)c2ccc(N)cc2)no1 [Sulfamethoxazol] + Cn1nnc(-c2ccc(-c3ccc(N4C[C@H](CO)OC4=O)cc3F)cn2)n1 | 0.933

Note: attention shifts to another entry.
Query: Using the record for CC1=C(C(=O)O)N2C(=O)[C@@H](NC(=O)[C@H](N)c3ccccc3)[C@H]2SC1 [Cephalexin] + Cn1nnc(-c2ccc(-c3ccc(N4C[C@H](CO)OC4=O)cc3F)cn2)n1 , report its fitness.
Reply: 0.928
